experiment: protease stability score; higher = more stable; yeast display proteolysis, trypsin and chymotrypsin;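 further: relative to predicted unfolded state with 0 unfolded-like and 1 meaning tenfold more protease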
property: protease stability score
Just the number, please, no unit after it.

stdin: Look up protease stability score: `DELEEEVLKALDEWLRSLATGDFDTLTHLMDPNAKTHIGDKHYHGRELLEIWIKRVDHVHRLHFRLRRYRVVGNKVELDGELEIDGEINGRHTNHSEDIRIVLHKIDGRWVVESMIIR`
stdout: 2.53

stdin: Look up protease stability score: `TEEEKKSEEFLKKLTHAWRTGNEDTLTHMMDPHVRIDFNGQELIGMEHARRLISELRVEDLEIESITHQGNKVHIRGRDLVLFNGQQRTIDTIFILKKVDGRWIIESIEFR`
stdout: 1.9

stdin: Look up protease stability score: `SEDEHNAEIAIKIWLDTIRTGDWHKIENMADPNTRIDIGDKHFHGREEIVRLYIELVEKFPGMTFHVREVDVVGDKVDIHSHVVVGDKTFNLTIIITKVNGRWLLKKVRMESH`
stdout: 2.67

stdin: Look up protease stability score: `DREEKQAEEVATEIIRALLTGDEKWLLHLIDPNVRWIMDVNGKELTLHGWHELIKKFRDDFRHLGVERFHVHVKDWDIQGDKMHLRVTFHIDGKTFDYELIIIVINGRITSMEVREH`
stdout: 2

stdin: Look up protease stability score: `DEDTKTAWRMLHLSHKAIETGDEHLIKHLFDPHVRIHIDGVDLHGREELLTHLRHWRMVVEDEVSKDSKSYGDKITLDGHVDLTFEYNGRRVRVIFDTRIIIVKFNGRWLIKTIHFE`
stdout: 0.512

stdin: Look up protease stability score: `DEEDERSKEAMEHFLENEITGDWKRLHELFDPNARMHINGREYHGREEVTNKFWEHNYRMGVKHVEVRDLEVINGRVHLHVEQDVGEFHIELEVVIKKVNGRWLIEETEIHVR`
stdout: 0.987

stdin: Look up protease stability score: `SEDEEIVRHFLEIWIKILKTGDWHSMERLVDPHAKYENEHEVDHGRDSARRFVDELRVTEFRVESVKTQGDKATVHTRMVVHFNGKRIDTETRLHIHKVDGRWVVEIIIVN`
stdout: 1.43

stdin: Look up protease stability score: `SELEKHIKDYFDYIFTLLLTGDWDTLWRMADPNVRFHAEGHEIHGRELWEEFIRKFKNIKVHLHRSSLIGDYLFLDGELEINGRRIRTEIELVIVNGRLTEVSHRLR`
stdout: 0.807

stdin: Look up protease stability score: `DEDEKELERVMREFMRVWLTGNEKDFKELMDPHVRLEIGDKEHHGREEAVRILHEWRRKLGVDHSDYHHIHVQGEKMHVRGISEYNGRTVEVIIEVLIINGKLRSVHVEFR`
stdout: 2.57

stdin: Look up protease stability score: `DELEKVMHDMADLILHLYLTGDWETFLELADPNVKITIGDKEHHGWKSWKRLLEEELRRVDHIDSKLKRVIAIGDKAHVDGHMEINVNGREYRLDVHIIYVIVNGRHKEIEIHSE`
stdout: 1.31

stdin: Look up protease stability score: `DHEEDLSHEFLERLVSAWRTGDEHTWNRLADPNYKLEINGRHSVGREDSLRVIKDIRDKYKGLTIDDVTIKDVRIFDGVIRAKMVLQLNFNGVNIEEEVDIVIEKVDGRWFLKFEIVK`
stdout: 0.653

stdin: Look up protease stability score: `SESEEDAHKASREITHMLYTGNEELWSTLADPNTRIVINGVEVHGREQVVRVIRELLRRFGVDKVHSELRTVDVQGEKVEIHSHYVQGDKSYDIILVMNKIDGRWHLQRQSIR`
stdout: 1.18

stdin: Look up protease stability score: `DEDEDFIRHQIQLYIELFETGDWRSLKRLADPNARHHINGRDLHGMDLFRRHIEHMGIKIKHIKLRDMRVIGDKIELKVENNVEIDGRERSLEEEIIARKIDGRWILESSTIR`
stdout: 0.39

Taken from the NTF2 design screens of Basanta et al. (2020).
